Record form. Attribute: pIC50. Fill in for each entry.
- MEASURED ON: PI3K alpha (Homo sapiens (Human))
- ASSAY OVERVIEW: Enzymatic PI3K alpha isoform inhibition (lipid kinase activity, Kinase-Glo luminescence)
- EXPERIMENTAL CONTEXT: Enzymatic assay
// scale note: pIC50 = -log10(conc_M); give the bare number

Just so you know, measured pIC50 for COc1ncc(N2CCOc3ccc(O[C@H]4CCN(C(=O)[C@H]5CCNC5)C4)cc32)cc1C#N [Example D39] came out at 6.01

Just so you know, measured pIC50 for CNc1cc(N2CCOc3ccc(O[C@H]4CCN(C(=O)C5CCOCC5)C4)cc32)cnc1S(C)(=O)=O [Example B77] came out at 6.05

Just so you know, measured pIC50 for COc1cc(N2CCOc3ccc(O[C@H]4CCN(C(=O)C5CCCOC5)C4)cc32)cnc1OC (some centres unmarked) [Example B43] came out at 6.29

Just so you know, measured pIC50 for Cc1cc(N2CCOc3cnc(O[C@H]4CCN(C(=O)c5cn(C)cn5)C4)cc32)cnc1OC(F)F [Example E10] came out at 6.64

Just so you know, measured pIC50 for COc1ncc(N2CCOc3ccc(O[C@H]4CCN(C(=O)c5ccc(=O)[nH]c5)C4)cc32)cc1C#N [Example D20] came out at 6.69

Just so you know, measured pIC50 for Cc1cc(N2CCOc3ccc(O[C@H]4CCN(C(=O)c5cncnc5)C4)cc32)cnc1S(C)(=O)=O [Example B23] came out at 6.00

Just so you know, measured pIC50 for COc1ncc(N2CCOc3ccc(O[C@H]4CCN(C(=O)CCO)C4)cc32)cc1F [Example B113] came out at 5.56

----------
Record form. Attribute: pIC50. Fill in for each entry.
- MEASURED ON: PI3K alpha (Homo sapiens (Human), UniProt P42336)
- Sequence (P42336 other isoform, or with tags, fused parts or gaps): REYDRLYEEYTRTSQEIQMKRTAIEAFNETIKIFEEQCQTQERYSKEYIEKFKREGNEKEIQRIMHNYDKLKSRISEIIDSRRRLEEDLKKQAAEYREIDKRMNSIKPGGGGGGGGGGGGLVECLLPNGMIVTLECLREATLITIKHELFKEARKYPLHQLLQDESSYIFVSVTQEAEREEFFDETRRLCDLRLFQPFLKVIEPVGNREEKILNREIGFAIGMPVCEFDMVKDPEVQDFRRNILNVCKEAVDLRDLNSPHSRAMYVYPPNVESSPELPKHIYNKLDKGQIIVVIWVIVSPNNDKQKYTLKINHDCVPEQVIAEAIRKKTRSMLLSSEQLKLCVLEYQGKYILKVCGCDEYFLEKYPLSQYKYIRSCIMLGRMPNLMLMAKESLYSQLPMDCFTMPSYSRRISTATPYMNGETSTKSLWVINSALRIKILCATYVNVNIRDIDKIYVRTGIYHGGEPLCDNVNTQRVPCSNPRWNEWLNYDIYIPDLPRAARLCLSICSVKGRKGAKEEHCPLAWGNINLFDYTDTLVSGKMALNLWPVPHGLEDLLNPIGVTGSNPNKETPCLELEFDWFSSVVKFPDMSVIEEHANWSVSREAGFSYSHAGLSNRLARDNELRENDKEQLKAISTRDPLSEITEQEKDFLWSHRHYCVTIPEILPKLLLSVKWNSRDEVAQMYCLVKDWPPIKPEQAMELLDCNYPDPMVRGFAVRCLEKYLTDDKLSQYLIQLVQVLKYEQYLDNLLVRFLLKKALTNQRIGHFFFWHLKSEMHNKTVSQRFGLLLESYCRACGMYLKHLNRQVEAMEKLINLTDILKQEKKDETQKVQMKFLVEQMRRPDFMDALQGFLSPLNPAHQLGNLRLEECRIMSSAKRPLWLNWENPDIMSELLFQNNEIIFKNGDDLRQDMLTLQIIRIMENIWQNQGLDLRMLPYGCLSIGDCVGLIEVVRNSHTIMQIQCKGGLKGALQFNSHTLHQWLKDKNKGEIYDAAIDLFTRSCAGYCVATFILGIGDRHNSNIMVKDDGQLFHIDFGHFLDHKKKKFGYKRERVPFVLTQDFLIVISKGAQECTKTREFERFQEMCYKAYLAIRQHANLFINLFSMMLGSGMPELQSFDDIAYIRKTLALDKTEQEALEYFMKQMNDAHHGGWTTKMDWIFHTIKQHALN
- ASSAY OVERVIEW: Enzymatic PI3K alpha isoform inhibition (lipid kinase activity, Kinase-Glo luminescence)
- EXPERIMENTAL CONTEXT: Enzymatic assay
// scale note: pIC50 = -log10(conc_M); give the bare number

Just so you know, measured pIC50 for COc1ncc(N2CCOc3cnc(O[C@H]4CCN(C(=O)c5cn(C)cn5)C4)cc32)cc1C#N [Example F5] came out at 6.35

Just so you know, measured pIC50 for COc1cc(N2CCOc3ccc(O[C@H]4CCN(C(=O)CCO)C4)cc32)cnc1Cl [Example B57] came out at 5.64

Just so you know, measured pIC50 for Nc1ncc(N2CCOc3ccc(O[C@H]4CCN(C(=O)C5CCOCC5)C4)cc32)cc1C(F)(F)F [Example A23] came out at 5.80

Just so you know, measured pIC50 for CCC(=O)N1CC[C@H](Oc2ccc3c(c2)N(c2cncc(C#N)c2)CCO3)C1 [Example A32] came out at 5.50

Just so you know, measured pIC50 for COCC(=O)N1CC[C@H](Oc2ccc3c(c2)N(c2cnc(S(C)(=O)=O)c(C)c2)CCO3)C1 [Example B32] came out at 6.43

----------
- MEASURED ON: PI3K delta (Homo sapiens (Human), UniProt O00329)
- Sequence (O00329 other isoform, or with tags, fused parts or gaps linker GGGGGG): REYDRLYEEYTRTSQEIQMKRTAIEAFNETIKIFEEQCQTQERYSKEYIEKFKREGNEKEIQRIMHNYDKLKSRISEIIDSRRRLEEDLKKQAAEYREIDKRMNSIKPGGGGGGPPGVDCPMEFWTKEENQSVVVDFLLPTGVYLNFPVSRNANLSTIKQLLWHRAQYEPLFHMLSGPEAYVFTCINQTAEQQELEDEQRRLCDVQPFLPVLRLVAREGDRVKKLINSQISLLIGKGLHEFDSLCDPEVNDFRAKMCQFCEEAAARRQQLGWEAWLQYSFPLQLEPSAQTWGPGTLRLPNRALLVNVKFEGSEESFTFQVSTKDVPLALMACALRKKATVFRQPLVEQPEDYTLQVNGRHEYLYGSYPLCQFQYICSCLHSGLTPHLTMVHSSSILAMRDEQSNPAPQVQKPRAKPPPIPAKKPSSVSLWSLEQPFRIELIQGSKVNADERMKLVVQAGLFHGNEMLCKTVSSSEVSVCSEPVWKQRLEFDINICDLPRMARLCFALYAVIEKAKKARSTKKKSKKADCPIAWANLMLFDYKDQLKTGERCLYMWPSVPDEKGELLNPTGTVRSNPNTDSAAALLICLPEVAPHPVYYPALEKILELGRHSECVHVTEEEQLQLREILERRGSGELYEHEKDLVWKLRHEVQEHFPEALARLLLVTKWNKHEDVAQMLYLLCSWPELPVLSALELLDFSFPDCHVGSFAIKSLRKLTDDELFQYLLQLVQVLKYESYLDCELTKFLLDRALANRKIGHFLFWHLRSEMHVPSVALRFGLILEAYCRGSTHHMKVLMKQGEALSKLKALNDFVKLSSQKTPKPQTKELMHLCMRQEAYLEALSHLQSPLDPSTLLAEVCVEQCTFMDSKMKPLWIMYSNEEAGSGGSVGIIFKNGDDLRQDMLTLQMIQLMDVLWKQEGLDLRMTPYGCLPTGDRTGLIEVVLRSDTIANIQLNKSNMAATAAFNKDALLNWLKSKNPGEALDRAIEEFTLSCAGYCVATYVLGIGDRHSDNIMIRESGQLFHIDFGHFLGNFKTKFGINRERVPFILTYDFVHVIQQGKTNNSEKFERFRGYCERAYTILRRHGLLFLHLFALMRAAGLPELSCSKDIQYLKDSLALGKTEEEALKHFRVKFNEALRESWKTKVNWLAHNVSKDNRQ
- ASSAY OVERVIEW: Enzymatic PI3K delta isoform inhibition (lipid kinase activity, Kinase-Glo luminescence)
- EXPERIMENTAL CONTEXT: Enzymatic assay
Record form. Attribute: IC50. Fill in for each entry.
Write the number in nM without appending the unit.

Just so you know, measured IC50 for `COc1ncc(N2CCOc3ccc(O[C@H]4CCN(C(=O)[C@H]5CC[C@H](O)CC5)C4)cc32)cc1C#N` came out at 11

Just so you know, measured IC50 for `COc1ncc(N2CCOc3ccc(O[C@@H]4CON(C(=O)C5CCOCC5)C4)cc32)cc1C#N` came out at 7080

Just so you know, measured IC50 for `COc1ncc(N2CCOc3ccc(O[C@H]4CCN(C(=O)c5cn(C)cn5)C4)cc32)cc1N` came out at 76

Just so you know, measured IC50 for `Cc1cc(N2CCOc3cnc(O[C@H]4CCN(C(=O)c5cn(C)cn5)C4)cc32)cnc1OC(F)F` came out at 13

Just so you know, measured IC50 for `COc1cc(N2CCOc3ccc(O[C@H]4CCN(C(=O)CCS(C)(=O)=O)C4)cc32)cnc1OC` came out at 74.5

Just so you know, measured IC50 for `COc1ncc(N2CCOc3ccc(O[C@H]4CCN(C(=O)[C@H]5CCNC5)C4)cc32)cc1C#N` came out at 36

Just so you know, measured IC50 for `Cc1cc(N2CCOc3ccc(O[C@H]4CCN(C(=O)[C@H]5CC[C@@H](O)CC5)C4)cc32)cnc1S(C)(=O)=O` came out at 10

Just so you know, measured IC50 for `COc1ncc(N2CCOc3cnc(O[C@H]4CCN(C(=O)c5cn(C)cn5)C4)cc32)cc1C#N` came out at 25

Just so you know, measured IC50 for Cc1cc(N2CCOc3ccc(O[C@H]4CCN(C(=O)C5COCCO5)C4)cc32)cnc1S(C)(=O)=O (single isomer, unassigned) [Example H4] came out at 11

Just so you know, measured IC50 for `COc1ncc(N2CCOc3ccc(O[C@H]4CCN(C(=O)c5cc[nH]c(=O)c5)C4)cc32)cc1C#N` came out at 41

Just so you know, measured IC50 for `COc1ncc(N2CCOc3cnc(O[C@H]4CCN(C(=O)C5CCS(=O)(=O)CC5)C4)cc32)cc1C(F)(F)F` came out at 9

Just so you know, measured IC50 for `CCC(=O)N1CC[C@H](Oc2ccc3c(c2)N(c2cncc(S(=O)(=O)N4CCN(C)CC4)c2)CCO3)C1` came out at 16
